growth inhibition values, listed per item
Assay: NCI Yeast Anticancer Drug Screen. Data for the rad50EPP+ strain (AID 151);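 note: 0% = growth of vehicle-treated control cultures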
Details: S. cerevisiae rad50 mutant strain, at 3.7 µM, stronger effect = higher value
This is part of a sample that, as a whole, favours compounds with a hit. Of some 79,000 tested, about 15% had one in any assay.

molecule | unit-abbrev | growth inhibition
NCCNCCNc1ccc(NCCNCCN)c2c1C(=O)c1c(O)ccc(O)c1C2=O | % | 36
CN(C)CCCCN1c2ccccc2Sc2ccc(N=[N+]=[N-])cc21 | % | 20
CCCCCCCCCCCCCCCCCC(=O)NCCCN(C)C | % | -43
COC(=O)C1=C(C(=O)OC)C(C(=O)OC)C(C(=O)OC)C(C(=O)OC)(C(=O)OC)C(C(=O)OC)=C1C(=O)OC (stereo not given) | % | -4
Cc1c2cc[n+](Cc3ccc(I)cc3)cc2c(C)c2c1[nH]c1ccccc12 | % | 29
Cc1ccc(CC2(OCCN(C)C)CCC(C(C)(C)C)CC2)cc1 (stereo not given) | % | -9
Cc1csc(=S)n1OC(=O)NC1CCCCC1 | % | 99
CCCCCCCCCCCCCCCCOP(=O)(O)OCC(N)C(=O)O (stereo not given) | % | -4
Cc1cc(C(C)(C)C)c(OCCCN2CCOCC2)c(C(C)(C)C)c1 | % | 3
COc1ccc(/C=C/c2sc3ccccc3[n+]2CCCCI)cc1OC | % | -2
CCC1(OC(=O)CN2CCN(CCO)CC2)C(=O)OCc2c1cc1n(c2=O)Cc2cc3ccccc3nc2-1 (stereo not given) | % | 17
O=C(O)c1cc2ccc(Cl)cc2c(O)c1C1=CCCCC1 | % | 8
O=C(COC(=O)c1ccccc1)c1ccc(Br)cc1 | % | 93
C/C=C/SC(=Nc1ccccc1)Nc1ccccc1 | % | 3
CC1CC(C)(C)CC(OCCN2CCCCC2)(c2ccccc2)C1 (stereo not given) | % | 1
CC1=C(C(=O)NCc2ccccc2)C(c2ccccc2)C(C(=O)NCc2ccccc2)=C(C)N1 | % | -1
CC(=O)Nc1ccc(/C=C/[N+](=O)[O-])cc1 | % | 42
CC(C)/C(Cl)=N\OC(=O)Nc1ccc(F)cc1F | % | 13
O=C(O)C1CC(c2ccccc2)=NN1c1ccccc1 (stereo not given) | % | -17
COC(=O)C1(C)CCc2c(ccc3ccccc23)C1=O (stereo not given) | % | 13
S=c1sc2c(s1)SCCS2 | % | 3
c1ccc2c(c1)sc1c3cnccc3ccc21 | % | 46
Nc1ccn(C2OC(COP(=O)(O)O)C(O)C2O)c(=O)n1 (stereo not given) | % | -2
O=C1C=C(Cl)C(=O)N1c1cccc(Cl)c1 | % | 96
CSc1nnc(SC)nn1 | % | 4
CC(=O)OC1CC2C(C)(C)C(=O)C=C[C@]2(C)C2CCC3(C)C(=CCC3[C@H](CO)C[C@H](O)C(=O)C(C)(C)O)[C@]12C (stereo not given in full) | % | -35
COc1ccc(N=CN(C)C)c(C)c1 | % | -62
Cc1ccc(S/C(=C\C(=O)O)c2ccccc2)cc1 | % | 2
Cc1cccc2c1nc1ccc(Cl)cc1[n+]2C | % | 4
CCCC(O)C1CC(C(C)C)CCC1C (stereo not given) | % | -2
COc1oc(C(=O)NC2CCCCC2)c(-c2ccc(Cl)cc2)c1S(=O)(=O)c1ccccc1 | % | -19
O=C(c1ccc([N+](=O)[O-])cc1)C1N=NCC1c1ccccc1 (stereo not given) | % | -3
COC(=O)NC1C(C)OC(OC2C/C=C(/C)C3C=CC4C(OC5CC(OC6CC(O)C(OC7CC(O)C(OC)C(C)O7)C(C)O6)C(O)C(C)O5)C(C)CC(C)C4C3(C)/C(O)=C3\C(=O)OC4(CC(C)C(CO)=CC4/C=C\2C)C3=O)CC1(C)[N+](=O)[O-] (stereo not given) | % | 8
O=C(CSC(=S)N1CCCCC1)Nc1nc2c(s1)CCCC2 | % | 31
Cn1c(-c2ccc(/C=N\N3CCN(/N=C/c4ccc(-c5c[n+]6ccccc6n5C)cc4)CC3)cc2)c[n+]2ccccc12 | % | -26
O=[N+]([O-])c1cccc2nc3ccccc3c(NCCCn3ccnc3[N+](=O)[O-])c12 | % | 37
CCOC(=O)c1[nH]cc(C)c1-c1cccn1-c1ccc(Cl)cc1[N+](=O)[O-] | % | 30
COC1=C(OC)C(=O)C(Sc2ccc3ccccc3c2)=CC1=O | % | -10
Oc1ccc(O)c(Cc2ccccc2)c1 | % | 88
CCC(C)OC(=O)Nc1ccc(C)c(NC(=O)OC(C)CC)c1 (stereo not given) | % | -5
